Assay: Rat pharmacokinetic study: plasma and brain levels after single oral dose
Type: in vivo
Settings: male, Sprague-Dawley, brain, po, 10 mg/kg, rat brain, 105 min after oral 10 mg/kg, mean ± SEM, read-out: BrTotal (brain total concentration)
Property Measured: concentration at 105 min (nM)
Unit nM implied. Number only.

Query string: Data request, read-out concentration at 105 min, for O=C([C@@H]1C[C@H](N2CCN(c3ncccn3)CC2)CN1)N1CCC(F)(F)C1
Result string: 574

###

Test: Rat pharmacokinetic study: plasma and brain levels after single oral dose
Assay type: in vivo
Conditions: male, Sprague-Dawley, plasma, po, 10 mg/kg, rat plasma, 105 min (predicted Cmax) after oral 10 mg/kg, mean ± SEM, n = 5 to 6, read-out: PlTotal (plasma total concentration)
Property Measured: concentration at 105 min (nM)
Unit nM implied. Number only.

Query string: Data request, read-out concentration at 105 min, for O=C([C@@H]1C[C@H](N2CCN(c3ncccn3)CC2)CN1)N1CCC(F)(F)C1
Result string: 922

###

Assay: Rat pharmacokinetic study: plasma and brain levels after single oral dose
Type: in vivo
Conditions: male, Sprague-Dawley, brain, po, 10 mg/kg, rat brain, 105 min after oral 10 mg/kg, mean ± SEM, read-out: BrFree (brain free concentration)
Property Measured: concentration at 105 min (nM)
Unit nM implied. Number only.

Query string: Data request, read-out concentration at 105 min, for O=C([C@@H]1C[C@H](N2CCN(c3ncccn3)CC2)CN1)N1CCC(F)(F)C1
Result string: 195

###

Assay: Rat pharmacokinetic study: plasma and brain levels after single oral dose
Type: in vivo
Conditions: male, Sprague-Dawley, plasma, po, 10 mg/kg, rat plasma, 105 min after oral 10 mg/kg, mean ± SEM, read-out: PlFree (plasma free concentration)
Property Measured: concentration at 105 min (nM)
Unit nM implied. Number only.

Query string: Data request, read-out concentration at 105 min, for O=C([C@@H]1C[C@H](N2CCN(c3ncccn3)CC2)CN1)N1CCC(F)(F)C1
Result string: 830
